- testSystem: UniProt P43235
- test: Inhibitory constant against human cathepsin K using Z-Phe-Arg-AMC substrate
- conditionDescription: read-out: Ki app
pKi: −log10 of the molar value.
Recorded pKi, one value per entry.

[
  {
    "compound": "N#CCNC(=O)C1(NC(=O)c2ccc(-c3ccc(-c4ccno4)cc3)cc2)CCCCC1",
    "comparator": "=",
    "pKi": 8.27
  },
  {
    "compound": "CN1CCC(C)(c2nc(-c3ccc(C(=O)NC4(C(=O)NCC#N)CCCCC4)cc3)cs2)CC1",
    "comparator": "=",
    "pKi": 9.02
  },
  {
    "compound": "CC(C)(C)N1CCN(c2ccc(-c3ccc(C(=O)NC4(C(=O)NCC#N)CCCCC4)cc3)cc2)CC1",
    "comparator": ">",
    "pKi": 9.60
  },
  {
    "compound": "COCCN1CCC(Oc2ccc(-c3ccc(C(=O)NC4(C(=O)NCC#N)CCCCC4)cc3)cc2)CC1",
    "comparator": ">",
    "pKi": 9.60
  },
  {
    "compound": "N#CCNC(=O)C1(NC(=O)c2ccc(-c3csc(OC4CCNCC4)n3)cc2)CCCCC1",
    "comparator": "=",
    "pKi": 9.24
  },
  {
    "compound": "CC(C)NC1CCN(c2nc(-c3ccc(C(=O)NC4(C(=O)NCC#N)CCCCC4)cc3)cs2)CC1",
    "comparator": "=",
    "pKi": 9.23
  },
  {
    "compound": "CCCC[C@H](NC(=O)OCc1ccccc1)C(=O)NCC#N",
    "comparator": "=",
    "pKi": 6.31
  },
  {
    "compound": "CN1CCC(N(C)c2ccc(-c3ccc(C(=O)NC4(C(=O)NCC#N)CCCCC4)cc3)cc2)C1 (configuration not stated)",
    "comparator": ">",
    "pKi": 9.60
  },
  {
    "compound": "N#CCNC(=O)C1(NC(=O)OCc2ccccc2)CCCCC1",
    "comparator": "=",
    "pKi": 7.08
  },
  {
    "compound": "N#CCNC(=O)C1(NC(=O)c2ccc(-c3csc(N4CC[C@@H](N)C4)n3)cc2)CCCCC1",
    "comparator": "=",
    "pKi": 8.85
  },
  {
    "compound": "CC(C)C[C@](C)(NC(=O)OCc1ccccc1)C(=O)NCC#N",
    "comparator": "=",
    "pKi": 5.74
  },
  {
    "compound": "N#CCNC(=O)C1(NC(=O)c2ccc(-c3ccc(N4CCNCC4)cc3)cc2)CCCCC1",
    "comparator": ">",
    "pKi": 9.60
  },
  {
    "compound": "N#CCNC(=O)C1(NC(=O)c2ccc(Br)s2)CCCCC1",
    "comparator": "=",
    "pKi": 7.80
  },
  {
    "compound": "CN(C)c1ccc(C(=O)NC2(C(=O)NCC#N)CCCCC2)cc1",
    "comparator": "=",
    "pKi": 8.48
  },
  {
    "compound": "CN1CCN(Cc2nc(-c3ccc(C(=O)NC4(C(=O)NCC#N)CCCCC4)cc3)cs2)CC1",
    "comparator": "=",
    "pKi": 9.03
  },
  {
    "compound": "CN1CCC(Oc2ccc(-c3ccc(C(=O)NC4(C(=O)NCC#N)CCCCC4)cc3)cc2)CC1",
    "comparator": ">",
    "pKi": 9.60
  },
  {
    "compound": "N#CCNC(=O)C1(NC(=O)c2ccc(-c3ccc(C4(F)CCNCC4)cc3)cc2)CCCCC1",
    "comparator": ">",
    "pKi": 9.60
  },
  {
    "compound": "CN1CCN(N(C)c2nc(-c3ccc(C(=O)NC4(C(=O)NCC#N)CCCCC4)cc3)cs2)CC1",
    "comparator": "=",
    "pKi": 9.60
  },
  {
    "compound": "N#CCNC(=O)[C@H](Cc1ccc2ccccc2c1)NC(=O)OCc1ccccc1",
    "comparator": "=",
    "pKi": 4.52
  },
  {
    "compound": "N#CCNC(=O)C1(NC(=O)c2ccc(-c3ccc(S(=O)(=O)N4CCNCC4)cc3)cc2)CCCCC1",
    "comparator": ">",
    "pKi": 9.60
  },
  {
    "compound": "N#CCNC(=O)C1(NC(=O)c2ccc(N3CCOCC3)cc2)CCCCC1",
    "comparator": "=",
    "pKi": 7.72
  },
  {
    "compound": "N#CCNC(=O)[C@@H](NC(=O)OCc1ccccc1)c1ccccc1",
    "comparator": "=",
    "pKi": 4.77
  },
  {
    "compound": "C#Cc1ccc(C(=O)NC2(C(=O)NCC#N)CCCCC2)cc1",
    "comparator": "=",
    "pKi": 7.89
  },
  {
    "compound": "N#CCNC(=O)C1(NC(=O)c2ccc(-c3csc(N4CCC(N5CCOCC5)CC4)n3)cc2)CCCCC1",
    "comparator": ">",
    "pKi": 9.60
  },
  {
    "compound": "CC(C)C[C@@H](NC(=O)OCc1ccccc1)C(=O)NCC#N",
    "comparator": "=",
    "pKi": 4.89
  },
  {
    "compound": "N#CCNC(=O)C1(NC(=O)CCc2ccccc2)CCCCC1",
    "comparator": "=",
    "pKi": 6.39
  },
  {
    "compound": "CC(C[C@H](NC(=O)OCc1ccccc1)C(=O)NCC#N)C(F)(F)F (some centres not stated)",
    "comparator": "=",
    "pKi": 6.46
  },
  {
    "compound": "CC(C)C[C@H](NC(=O)OCc1ccccc1)C(=O)NCC#N",
    "comparator": "=",
    "pKi": 7.46
  },
  {
    "compound": "CN1CCCC(Oc2ccc(-c3ccc(C(=O)NC4(C(=O)NCC#N)CCCCC4)cc3)cc2)C1 (configuration not stated)",
    "comparator": "=",
    "pKi": 9.17
  },
  {
    "compound": "CC(C)(C)N1CCN(c2nc(-c3ccc(C(=O)NC4(C(=O)NCC#N)CCCCC4)cc3)cs2)CC1",
    "comparator": "=",
    "pKi": 9.54
  },
  {
    "compound": "CN1CCN(c2ccc(C(=O)NC3(C(=O)NCC#N)CCCCC3)cc2)CC1",
    "comparator": "=",
    "pKi": 8.82
  },
  {
    "compound": "CN(C)c1ccc(-c2ccc(C(=O)NC3(C(=O)NCC#N)CCCCC3)cc2)cc1",
    "comparator": "=",
    "pKi": 8.70
  },
  {
    "compound": "N#CCNC(=O)C1(NC(=O)c2ccc(-c3csc(N4CCC(N5CCCCC5)CC4)n3)cc2)CCCCC1",
    "comparator": "=",
    "pKi": 9.35
  },
  {
    "compound": "N#CCNC(=O)C1(NC(=O)c2ccc(-c3ccc(OC4CCN(CCO)CC4)cc3)cc2)CCCCC1",
    "comparator": ">",
    "pKi": 9.60
  },
  {
    "compound": "N#CCNC(=O)C1(NC(=O)c2ccc(-c3csc(CN4CCOCC4)n3)cc2)CCCCC1",
    "comparator": "=",
    "pKi": 8.06
  },
  {
    "compound": "CN1CCN(S(=O)(=O)c2ccc(C(=O)NC3(C(=O)NCC#N)CCCCC3)cc2)CC1",
    "comparator": "=",
    "pKi": 7.89
  },
  {
    "compound": "CC(C)N(C)C1CCN(c2nc(-c3ccc(C(=O)NC4(C(=O)NCC#N)CCCCC4)cc3)cs2)CC1",
    "comparator": "=",
    "pKi": 8.80
  }
]

###

The entries below are paired with their reported Ki.
- testSystem: Cathepsin B (Homo sapiens, UniProt P07858)
- test: Inhibitory constant against human cathepsin B using Boc-Leu-Lys-Arg-AMC substrate
- conditionDescription: read-out: Ki app
quantityMeasured: Ki (µM)

[
  {
    "compound": "N#CCNC(=O)C1(NC(=O)OCc2ccccc2)CCCCC1",
    "units": "µM",
    "comparator": "=",
    "recordedValue": 64
  },
  {
    "compound": "COCCN1CCN(c2nc(-c3ccc(C(=O)NC4(C(=O)NCC#N)CCCCC4)cc3)cs2)CC1",
    "units": "µM",
    "comparator": "=",
    "recordedValue": 1.3
  },
  {
    "compound": "N#CCNC(=O)C1(NC(=O)c2ccc(-c3ccc(S(=O)(=O)N4CCN(CC(F)(F)F)CC4)cc3)cc2)CCCCC1",
    "units": "µM",
    "comparator": "=",
    "recordedValue": 56
  },
  {
    "compound": "CN1CCCC(Oc2ccc(-c3ccc(C(=O)NC4(C(=O)NCC#N)CCCCC4)cc3)cc2)C1 (centres undefined)",
    "units": "µM",
    "comparator": "=",
    "recordedValue": 0.87
  },
  {
    "compound": "N#CCNC(=O)C1(NC(=O)c2ccc(-c3ccc(C4(F)CCNCC4)cc3)cc2)CCCCC1",
    "units": "µM",
    "comparator": "=",
    "recordedValue": 0.28
  },
  {
    "compound": "CCCN1CCN(c2ccc(C(=O)NC3(C(=O)NCC#N)CCCCC3)cc2)CC1",
    "units": "µM",
    "comparator": "=",
    "recordedValue": 2.9
  },
  {
    "compound": "N#CCNC(=O)C1(NC(=O)c2ccc(-c3csc(CN4CCOCC4)n3)cc2)CCCCC1",
    "units": "µM",
    "comparator": "=",
    "recordedValue": 3.8
  },
  {
    "compound": "N#CCNC(=O)C1(NC(=O)OCc2ccccc2)CC1",
    "units": "µM",
    "comparator": ">",
    "recordedValue": 150
  },
  {
    "compound": "N#CCNC(=O)C1(NC(=O)c2ccc(-c3csc(N4CCC(N5CCOCC5)CC4)n3)cc2)CCCCC1",
    "units": "µM",
    "comparator": "=",
    "recordedValue": 0.67
  },
  {
    "compound": "CC(C)NC1CCN(c2nc(-c3ccc(C(=O)NC4(C(=O)NCC#N)CCCCC4)cc3)cs2)CC1",
    "units": "µM",
    "comparator": "=",
    "recordedValue": 0.76
  },
  {
    "compound": "N#CCNC(=O)C1(NC(=O)c2ccc(-c3ccc(N4CCNCC4)cc3)cc2)CCCCC1",
    "units": "µM",
    "comparator": "=",
    "recordedValue": 0.42
  },
  {
    "compound": "CCCC[C@H](NC(=O)OCc1ccccc1)C(=O)NCC#N",
    "units": "µM",
    "comparator": ">",
    "recordedValue": 150
  },
  {
    "compound": "N#CCNC(=O)C1(NC(=O)c2ccc(N)cc2)CCCCC1",
    "units": "µM",
    "comparator": "=",
    "recordedValue": 10
  },
  {
    "compound": "CN1CCC(Oc2ccc(-c3ccc(C(=O)NC4(C(=O)NCC#N)CCCCC4)cc3)cc2)CC1",
    "units": "µM",
    "comparator": "=",
    "recordedValue": 0.53
  },
  {
    "compound": "N#CCNC(=O)C1(NC(=O)CCc2ccccc2)CCCCC1",
    "units": "µM",
    "comparator": "=",
    "recordedValue": 99
  },
  {
    "compound": "CN1CCN(C(=O)c2ccc(C(=O)NC3(C(=O)NCC#N)CCCCC3)cc2)CC1",
    "units": "µM",
    "comparator": "=",
    "recordedValue": 13
  },
  {
    "compound": "CC(C)N(C)C1CCN(c2nc(-c3ccc(C(=O)NC4(C(=O)NCC#N)CCCCC4)cc3)cs2)CC1",
    "units": "µM",
    "comparator": "=",
    "recordedValue": 1.4
  },
  {
    "compound": "N#CCNC(=O)[C@@H](NC(=O)OCc1ccccc1)c1ccccc1",
    "units": "µM",
    "comparator": ">",
    "recordedValue": 150
  },
  {
    "compound": "CN1CCN(c2nc(-c3ccc(C(=O)NC4(C(=O)NCC#N)CCCCC4)cc3)cs2)CC1",
    "units": "µM",
    "comparator": "=",
    "recordedValue": 1
  }
]
